The values you see were collected from patent US20220396626A1.

- tested-on: T1, human CLL1 ECD-His (human CLL1 extracellular domain with His tag) (human, UniProt Q5QGZ9 65-265)
- T1 construct: also called antigen human CLL1 ECD-His; antigen CLL1; not shown: His tag
- T1 sequence: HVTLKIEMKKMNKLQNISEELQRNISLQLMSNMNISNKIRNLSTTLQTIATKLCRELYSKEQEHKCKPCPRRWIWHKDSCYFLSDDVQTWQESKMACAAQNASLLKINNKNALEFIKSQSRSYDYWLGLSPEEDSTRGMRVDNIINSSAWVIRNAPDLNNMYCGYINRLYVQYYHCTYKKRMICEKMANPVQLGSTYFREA
- assay-summary: BLI (ForteBio), antibody on AHC sensor, 60 nM human CLL1 ECD-His, 1:1 model
measured-property: kon (M⁻¹ s⁻¹)
Respond with the bare value in M⁻¹ s⁻¹.

anti-human CLL-1 control antibody 1075.7 (antibody, it was captured by anti-human IgG sensors and detected with anti-human IgG-Fc, so a human Fc was present; also called ch1075.7) scFv: ENVLTQSPAIMSASPGEKVTMTCRASSNVISSYVHWYQQRSGASPKLWIYSTSNLASGVPARFSGSGSGTSYSLTISSVEAEDAATYYCQQYSGYPLTFGAGTKLELGGGGSGGGGSGGGGSDIQLQESGPGLVKPSQSLSLTCSVTGYSITSAYYWNWIRQFPGNKLEWMGYISYDGRNNYNPSLKNRISITRDTSKNQFFLKLNSVTTEDTATYYCAKEGDYDVGNYYAMDYWGQGTSVTVSS has a reported kon of 148000

humanized antibody hz27H4H1L2 (antibody, V domains shown, Heavy chain variable region hz27H4H1 with light chain variable region hz27H4L2; also called h27H4H1L2 (complete antibody)) VH: EVQLVQSGAEVKKPGASVKVSCKASGYTFTGYHMHWVRQAPGQRLEWMGRINPYNGAASHNQKFKDRVTITRDTSASTAYMELSSLRSEDTAVYYCARGWDYDGGYYAMDYWGQGTLVTVSS VL: DIVMTQSPLSLPVTPGEPASISCKSSQSLLYSDNQKNYLAWYLQKPGQSPQLLIYWASTRESGVPDRFSGSGSGTDFTLKISRVEAEDVGVYYCQQYYTYPYTFGQGTKLEIK has a reported kon of 441000

chimeric antibody ch27H4 (antibody, V domains shown, also called parent antibody) VH: EVQLQQSGPELVKPGASVKISCKASGYSFTGYHMHWVKQSHVKSLEWIGRINPYNGAASHNQKFKDKATLTVDKSSSTAYMELHSLTSEDSAVYYCARGWDYDGGYYAMDYWGQGTSVTVSS VL: DIVMSQSPSSLAVSVGEKVTMSCKSSQSLLYSDNQKNYLAWYQQKPGQSPKLLIYWASTRESGVPDRFTGSGSGTDFTLTISSVKAEDLAVYYCQQYYTYPYTFGGGTKLEIK has a reported kon of 320000

humanized antibody hz27H4H1L1 (antibody, V domains shown, Heavy chain variable region hz27H4H1 with light chain variable region hz27H4L1; also called h27H4H1L1 (complete antibody)) VH: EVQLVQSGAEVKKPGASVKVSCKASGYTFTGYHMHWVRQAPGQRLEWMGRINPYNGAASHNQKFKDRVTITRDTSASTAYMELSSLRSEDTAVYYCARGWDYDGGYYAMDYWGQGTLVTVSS VL: DIQMTQSPSSLSASVGDRVTITCKSSQSLLYSDNQKNYLAWYQQKPGKAPKLLIYWASTRESGVPSRFSGSGSGTDFTLTISSLQPEDFATYYCQQYYTYPYTFGQGTKLEIK has a reported kon of 377000
